From: patent US10829501B2

target: ROCK2 (Homo sapiens, UniProt O75116); assay: ROCK2 kinase inhibition assay (LABCHIP 3000 Reader, FITC peptide substrate);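 also: rho kinase reaction read by separating phosphorylated from unphosphorylated peptide on chip, with inhibition of kinase activity computed per concentration across a dose-response series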
Sequence (O75116 whole entry, species assumed): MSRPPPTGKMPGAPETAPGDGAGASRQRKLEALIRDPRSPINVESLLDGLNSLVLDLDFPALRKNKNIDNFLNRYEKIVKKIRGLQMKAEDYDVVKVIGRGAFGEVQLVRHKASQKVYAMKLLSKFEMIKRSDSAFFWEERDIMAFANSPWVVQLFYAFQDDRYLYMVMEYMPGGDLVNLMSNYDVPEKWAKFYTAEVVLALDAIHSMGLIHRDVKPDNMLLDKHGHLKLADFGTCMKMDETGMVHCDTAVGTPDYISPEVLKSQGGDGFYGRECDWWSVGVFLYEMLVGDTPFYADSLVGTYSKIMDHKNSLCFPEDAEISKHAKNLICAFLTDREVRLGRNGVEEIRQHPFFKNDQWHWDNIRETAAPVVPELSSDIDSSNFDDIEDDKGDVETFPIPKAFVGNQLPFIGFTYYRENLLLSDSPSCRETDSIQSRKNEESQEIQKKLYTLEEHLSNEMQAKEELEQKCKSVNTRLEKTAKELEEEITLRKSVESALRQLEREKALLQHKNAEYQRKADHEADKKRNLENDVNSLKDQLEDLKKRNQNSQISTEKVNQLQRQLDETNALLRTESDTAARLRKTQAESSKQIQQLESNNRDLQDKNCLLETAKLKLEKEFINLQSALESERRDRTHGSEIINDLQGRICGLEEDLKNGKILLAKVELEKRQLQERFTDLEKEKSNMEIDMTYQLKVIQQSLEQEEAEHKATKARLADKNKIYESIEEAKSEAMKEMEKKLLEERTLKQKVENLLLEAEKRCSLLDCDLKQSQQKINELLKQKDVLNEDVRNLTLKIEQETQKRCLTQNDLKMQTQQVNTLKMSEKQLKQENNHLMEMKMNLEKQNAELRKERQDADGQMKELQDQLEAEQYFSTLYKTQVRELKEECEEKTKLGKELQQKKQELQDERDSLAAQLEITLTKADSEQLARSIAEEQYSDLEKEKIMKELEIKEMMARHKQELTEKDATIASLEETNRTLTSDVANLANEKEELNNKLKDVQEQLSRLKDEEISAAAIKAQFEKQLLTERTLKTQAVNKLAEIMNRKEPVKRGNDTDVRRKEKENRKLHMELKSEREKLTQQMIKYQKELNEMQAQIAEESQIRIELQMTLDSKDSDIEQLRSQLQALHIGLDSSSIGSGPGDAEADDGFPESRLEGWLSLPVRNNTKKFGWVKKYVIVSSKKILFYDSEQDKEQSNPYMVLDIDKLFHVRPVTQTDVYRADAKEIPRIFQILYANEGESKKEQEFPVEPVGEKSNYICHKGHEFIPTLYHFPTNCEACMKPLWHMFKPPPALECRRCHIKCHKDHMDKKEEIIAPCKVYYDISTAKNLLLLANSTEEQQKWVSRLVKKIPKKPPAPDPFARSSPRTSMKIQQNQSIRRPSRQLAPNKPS
pIC50: −log10 of the molar value. Where a name gives a salt, the structure may show the parent alone.
readout: pIC50

Input line: Quote pIC50 reported for CC(C)(O)COc1ccc2c(C(=O)NC3CC4(C3)CC(Oc3nccnc3C(N)=O)C4)cnn2c1 (stereo not shown) please.
Output line: 5.60 to 6.60

Input line: Quote pIC50 reported for CN1CCN(c2ccc3c(C(=O)N[C@H]4CC5(C4)C[C@H](Oc4ncccc4C(N)=O)C5)cnn3c2)CC1 (stereo partly shown) please.
Output line: 7.30 to 8.30

Input line: Quote pIC50 reported for N#Cc1cccc(C(=O)N[C@H]2CC3(C2)C[C@H](Oc2ncccc2C(N)=O)C3)c1 (stereo partly shown) please.
Output line: 6.60 to 7.30

Input line: Quote pIC50 reported for NC(=O)c1cccnc1O[C@H]1CC2(C[C@H](NC(=O)c3ccn4ccnc4c3)C2)C1 (stereo partly shown) please.
Output line: 5.60 to 6.60

Input line: Quote pIC50 reported for N#Cc1cc(C(=O)N[C@H]2CC3(C2)C[C@H](Oc2ncccc2C(N)=O)C3)cc(-c2ccc3c(c2)CCC(=O)N3)c1 (stereo partly shown) please.
Output line: > 8.30

Input line: Quote pIC50 reported for NC(=O)c1cccnc1O[C@H]1CC2(C[C@H](NC(=O)c3nn(CC(F)F)c4cc(F)ccc34)C2)C1 (stereo partly shown) please.
Output line: > 8.30

Input line: Quote pIC50 reported for CC(C)(O)COc1ccc2c(C(=O)NC3CC4(C3)CC(Oc3cc(N5CC(N)C5)ccc3C(N)=O)C4)cnn2c1 (stereo not shown) [Example 260, TFA] please.
Output line: 7.30 to 8.30
